Here's a roundup of log10 Ki values tested on Adenosine receptor A1 (Homo sapiens, UniProt P30542), taken from various published works.
Sequence (P30542 whole entry): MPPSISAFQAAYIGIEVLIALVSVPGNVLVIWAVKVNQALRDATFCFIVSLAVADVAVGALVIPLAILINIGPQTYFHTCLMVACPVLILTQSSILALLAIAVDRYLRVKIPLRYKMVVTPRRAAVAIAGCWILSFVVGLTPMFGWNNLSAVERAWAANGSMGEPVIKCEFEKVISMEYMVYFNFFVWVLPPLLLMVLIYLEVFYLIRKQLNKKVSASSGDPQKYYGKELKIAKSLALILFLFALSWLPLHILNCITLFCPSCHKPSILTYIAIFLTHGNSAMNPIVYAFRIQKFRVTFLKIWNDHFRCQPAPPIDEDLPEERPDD
Recorded Ki (log10, nM)

### Prompt Returns the measured log10 Ki for the input compound. Input: `Nc1n[nH]c2nc(-c3ccco3)c(-c3ccncn3)cc12`
### Response 2.55

### Prompt Returns the measured log10 Ki for the input compound. Input: `CCCn1c(=O)c2nc(-c3cnn(Cc4noc(-c5ccc(OC)cc5)n4)c3)[nH]c2n(CCC)c1=O`
### Response 3.59

### Prompt Returns the measured log10 Ki for the input compound. Input: `Cn1c(=O)c2c(nc3n2CCN(Cc2csc(-c4cccs4)n2)C3)n(C)c1=O`
### Response 2.81

### Prompt Returns the measured log10 Ki for the input compound. Input: `O=c1[nH]c(-c2ccccc2)cn2c(=O)n(-c3ccccc3O)nc12`
### Response 3.17

### Prompt Returns the measured log10 Ki for the input compound. Input: `N#Cc1c(N)nc(SCCO)c(C#N)c1-c1ccc2c(c1)OCO2`
### Response 1.04

### Prompt Returns the measured log10 Ki for the input compound. Input: `Cc1ccc(CNc2nc3nn(C)cc3c3nc(-c4ccco4)nn23)cc1`
### Response 2.73

### Prompt Returns the measured log10 Ki for the input compound. Input: `Cn1cc2c(nc(N)n3nc(-c4ccccc4)nc23)n1`
### Response 2.53

### Prompt Returns the measured log10 Ki for the input compound. Input: `CCCn1c(=O)c2nc([C@]34CC[C@](/C=C/C(=O)O)(CC3)CC4)[nH]c2n(CCC)c1=O`
### Response 0.98

### Prompt Returns the measured log10 Ki for the input compound. Input: `CC(=O)Nc1cc(-c2ccccc2)nc(-n2nc(C)cc2C)n1`
### Response 2.46
